Test system: giant foxtail (Setaria faberii)
Assay: Test A postemergence
Assay type: in vivo
Conditions: Setaria faberi, post-emergence, 240 h, 125 g ai/ha, postemergence, visual injury vs untreated controls after approx. 10 d; 0 = no effect, 100 = complete control; read-out: Foxtail, Giant plant response rating (0 to 100 scale)
RECORDED_ENDPOINT: pest or weed control at 125 g/ha (%)
Answers are plain numbers, in %.

I have 5 molecules here; please give me pest or weed control at 125 g/ha for each one.
1. Cc1ccc([C@H]2CN(C)C(=O)[C@@H]2C(=O)Nc2cccc(F)c2C)cc1 [Compound 1186]
2. CN1CC[C@H](c2cccc(C(F)(F)F)c2)[C@@H](C(=O)Nc2cccc(F)c2Cl)C1=O [Compound 1158]
3. CN1C[C@H](c2ccc(C(F)F)cc2)[C@@H](C(=O)Nc2ccc(F)c(F)c2F)C1=O [Compound 1260]
4. O=C1NC[C@H](c2cccc(C(F)(F)F)c2)C1C(=O)Nc1c(F)cccc1CO (some centres unmarked) [Compound 1240]
5. CN1C[C@H](c2ccc(F)c(C#N)c2)[C@@H](C(=O)Nc2cccc(F)c2F)C1=O [Compound 1255]

[90, 80, 80, 0, 80]
